B1: Double-stranded RNA-binding protein Staufen homolog 1, residues 183 to 249; numbered along this chain, O95793 (parent)
chain: KSEISQVFEIALKRNLPVNFEVARESGPPHMKNFVTKVSVGEFVGEGEGKSKKISKKNAAIAVLEEL

Variants of: B1
Assay: abundance fitness (aPCA) (normalised: wild type 0, dead -1); higher = more abundant; growth selection in yeast, the domain comes from the species named
Conditions: Homo sapiens
abundance fitness: recorded values

Check out these entries, answers already filled in.
KSEISQVFEIALKRNLPVNFEVARESGPPHMKNFVTKVSVGEFMGEGEGKSKKISKKNAAIAVLEEL | -0.045
FSEISQVFEIALKRNLPVNFEVARESGPPHMKNFVTKVSVGEFVGEGEGKSKKISKKNAAIAVLEEL | -0.602
KSEISQVFEIALKRNLPVNFEVARESGPPHMKNFVLKVSVGEFVGEGEGKSKKISKKNAAIAVLEEL | -1.04
KSEISQVFEIALKRNLTVNFEVARESGPPHMKNFVTKVSVGEFVGEGEGKSKKISKKNAAIAVLEEL | 0.012
DSEISQVFEIALKRNLPVNFEVARESGPPHMKNFVTKVSVGEFVGEGEGKSKKISKKNAAIAVLEEL | -0.235

// next entry
Measured abundance fitness of `KSEISQVFEIALKRNLPVNFEVARESLPPHMKNFVTKVSVGEFVGEGEGKSKKISKKNAAIAVLEEL` : -0.418
